Target: human CB1 receptor (Homo sapiens, UniProt P21554)
Construct: expressed in transfected cells; host or cells: HEK-293
Sequence (P21554 whole entry): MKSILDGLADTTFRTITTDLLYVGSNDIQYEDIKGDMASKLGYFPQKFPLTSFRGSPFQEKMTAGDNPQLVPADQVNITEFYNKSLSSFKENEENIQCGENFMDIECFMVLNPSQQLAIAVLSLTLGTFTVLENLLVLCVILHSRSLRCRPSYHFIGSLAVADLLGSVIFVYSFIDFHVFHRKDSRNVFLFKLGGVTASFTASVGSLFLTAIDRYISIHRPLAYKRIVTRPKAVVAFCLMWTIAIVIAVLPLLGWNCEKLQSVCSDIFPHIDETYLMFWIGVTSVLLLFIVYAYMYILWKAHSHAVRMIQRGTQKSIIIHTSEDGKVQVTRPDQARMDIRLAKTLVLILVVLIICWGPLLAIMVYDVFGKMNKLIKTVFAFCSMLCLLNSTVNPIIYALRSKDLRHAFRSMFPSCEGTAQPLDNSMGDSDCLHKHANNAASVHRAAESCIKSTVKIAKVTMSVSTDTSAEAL
Assay: Radioligand displacement in human CB1 receptor-transfected cells (HEK-293)
Format: binding
Details: Ki, displacement of 3H-WIN55212-2, human CB1 transfected cells; radioligand 3H-WIN55212-2; Table 3
Procedure: Human CB1 receptor affinity. The alkyl amide analogs of the present invention were examined using transfected cell lines expressing the human CB1 receptor (Table 3). Methods—binding assay in transfected cell lines. The methods used for performing binding assays in transfected cells expressing human CB1 or CB2 receptors are those used above. […] Data analysis. Saturation and displacement data were analyzed by unweighted nonlinear regression of receptor binding data. […]
EXPERIMENTAL_ENDPOINT: Ki

MOLECULE | OBSERVED_MEASUREMENT
CCCCCCNC(=O)c1nn(-c2ccc(Cl)cc2Cl)c(-c2ccc(Cl)cc2)c1C | 85.4 nM
CCCCNC(=O)c1nn(-c2ccc(Cl)cc2Cl)c(-c2ccc(Cl)cc2)c1C | 29.8 nM

Look up Ki for the entries below, preserving their order.
1. Cc1c(C(=O)NC2CCCCC2)nn(-c2ccc(Cl)cc2Cl)c1-c1ccc(Cl)cc1
2. Cc1c(C(=O)NCC(C)C)nn(-c2ccc(Cl)cc2Cl)c1-c1ccc(Cl)cc1
3. Cc1c(C(=O)NC(C)C)nn(-c2ccc(Cl)cc2Cl)c1-c1ccc(Cl)cc1
4. CCNC(=O)c1nn(-c2ccc(Cl)cc2Cl)c(-c2ccc(Cl)cc2)c1C [MF9725-54C]

Result:
["5.36 nM", "127 nM", "692 nM", "185 nM"]
